Assay Procedure: Selectivity index, ratio of HC50 for hemolytic activity in sheep erythrocytes to MIC for antibacterial activity against Staphylococcus aureus ATCC 29213
Type: toxicity, cell-based, RBC
For each of the compounds below, state its selectivity ratio.
Give the figure by itself; no unit, no explanation.

Ask | Given the compound C=CCc1cc(-c2ccc(OCCC[N+](C)(C)CC(=O)NCCCC)c(CC=C)c2)c2oc(=S)n(Cc3ccc(Cl)cc3F)c2c1.[Br-] , what is its reported selectivity ratio?
Reply | 1.3

Ask | Given the compound C=CCc1cc(-c2ccc(OCCC[N+](C)(C)CC(=O)NCCCC)c(CC=C)c2)c2oc(=S)n(Cc3ccccc3Cl)c2c1.[Br-] , what is its reported selectivity ratio?
Reply | 241

Ask | Given the compound C=CCc1cc(-c2ccc(OCCC[N+](C)(C)CC(=O)NCCCC)c(CC=C)c2)c2oc(=S)n(Cc3ccc(F)c(F)c3)c2c1.[Br-] , what is its reported selectivity ratio?
Reply | 10.4

Ask | Given the compound C=CCc1cc(-c2ccc(OCCC[N+](C)(C)CC(=O)NCCCC)c(CC=C)c2)c2oc(=S)n(Cc3ccc(Cl)c(Br)c3)c2c1.[Br-] , what is its reported selectivity ratio?
Reply | 1.3

Ask | Given the compound C=CCc1cc(-c2ccc(OCCC[N+](C)(C)CC(=O)NCCCC)c(CC=C)c2)c2oc(=S)n(Cc3ccc(OC)cc3)c2c1.[Br-] , what is its reported selectivity ratio?
Reply | 1.8

Ask | Given the compound C=CCc1cc(-c2ccc(OCCC[N+](C)(C)CC(=O)NCCCC)c(CC=C)c2)c2oc(=S)n(Cc3c(Cl)cccc3Cl)c2c1.[Br-] , what is its reported selectivity ratio?
Reply | 25

Ask | Given the compound C=CCc1cc(-c2ccc(OCCC[N+](C)(C)CC(=O)NCCCC)c(CC=C)c2)c2oc(=S)n(Cc3cccc(Cl)c3Cl)c2c1.[Br-] , what is its reported selectivity ratio?
Reply | 0.7

The reported measurements were obtained from ChEMBL document CHEMBL6127052.
